Entries annotated with measured IC50
# Test system: Mahlavu
# measurement notes: Cytotoxicity against human Mahlavu cells assessed as growth inhibition after 72 hrs by SRB assay
# Type: functional, cell-based

- smiles entry: "COc1ccc(OC)c(C(=O)/C=C/c2cn(-c3ccccc3)nc2-c2ccncc2)c1"
  IC50 (nM): 1600
- smiles entry: "COc1ccc(OC)c(C(=O)/C=C/c2cn(-c3ccccc3)nc2-c2cccnc2)c1"
  IC50 (nM): 2000
- smiles entry: "COc1cc(OC)c(C(=O)/C=C/c2cn(-c3ccccc3)nc2-c2ccncc2)c(OC)c1"
  IC50 (nM): 1100
- smiles entry: "COc1cc(OC)c(C(=O)/C=C/c2cn(-c3ccccc3)nc2-c2cccnc2)c(OC)c1"
  IC50 (nM): 1100
